For each of the molecules below, state its Ki.
Molecular target: truncated XIAP containing only BIR1, BIR2, and BIR3 domains (Homo sapiens, UniProt P98170)
Sequence (P98170 26-330 limits assumed): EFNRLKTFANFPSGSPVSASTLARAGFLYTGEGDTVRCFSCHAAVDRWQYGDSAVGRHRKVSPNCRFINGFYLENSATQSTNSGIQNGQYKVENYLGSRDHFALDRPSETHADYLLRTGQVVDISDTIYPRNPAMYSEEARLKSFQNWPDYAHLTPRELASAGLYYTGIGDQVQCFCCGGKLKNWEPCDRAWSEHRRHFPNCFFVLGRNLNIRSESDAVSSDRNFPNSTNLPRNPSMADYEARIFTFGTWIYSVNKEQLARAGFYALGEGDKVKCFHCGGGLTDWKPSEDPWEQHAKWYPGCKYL
Experiment: Fluorescent polarization (FP) assay
Format: binding
Conditions: Table 2 experiment
Give bare numbers, in µM.

Working through the 3 molecules below one at a time, give Ki for each.
1. CN[C@@H](C)C(=O)N[C@H](C(=O)N1C[C@@H](NC(=O)COCC(=O)N[C@H]2C[C@@H](C(=O)N[C@@H]3CCCc4ccccc43)N(C(=O)[C@@H](NC(=O)[C@H](C)NC)C(C)(C)C)C2)C[C@H]1C(=O)N[C@@H]1CCCc2ccccc21)C(C)(C)C [compound 27]
2. CN[C@@H](C)C(=O)N[C@H](C(=O)N1C[C@@H](NC(=O)c2cc(N)cc(C(=O)N[C@H]3C[C@@H](C(=O)N[C@@H]4CCCc5ccccc54)N(C(=O)[C@@H](NC(=O)[C@H](C)NC)C(C)(C)C)C3)c2)C[C@H]1C(=O)N[C@@H]1CCCc2ccccc21)C(C)(C)C [compound 32]
3. CN[C@@H](C)C(=O)N[C@H](C(=O)N1C[C@@H](NC(=O)c2c(F)c(F)c(F)c(C(=O)N[C@H]3C[C@@H](C(=O)N[C@@H]4CCCc5ccccc54)N(C(=O)[C@@H](NC(=O)[C@H](C)NC)C(C)(C)C)C3)c2F)C[C@H]1C(=O)N[C@@H]1CCCc2ccccc21)C(C)(C)C [compound 28]

Reply:
0.25
0.23
0.23

Task item: Provide one value: measured Ki of CN[C@@H](C)C(=O)NC(C(=O)C1C[C@@H](NC(=O)C2CCCC2C(=O)N[C@H]2CC(C(=O)N[C@@H]3CCCc4ccccc43)N(C(=O)[C@@H](NC(=O)[C@H](C)NC)C(C)(C)C)C2)CC1C(=O)N[C@@H]1CCCc2ccccc21)C(C)(C)C (stereo partly shown) [compound 23]
Reply: 0.05
